test system: Colon cancer organoid; test: Optimized Dual-Glo assay to identify co-culture induced drug vulnerabilities using donated chemical probes and chemogenomics kinase set in O14 CRC organoid and F14 CAF mono and co-culture. […] Cell viability is reported both mono and co-culture models.; assay type: functional, Homo sapiens; parameters: dose or concentration left out as unconfirmed; conditions: Culture type Mono-Culture; Transduced with Renilla-dsRed lentivirus
# Cell Viability listing for each entry below
# value in %; strip the unit string

Guide cases for Cell Viability, answers given:
-- ask Cell Viability lookup needed for COc1cc(-c2cn([C@H]3CCc4c(F)cccc4N(CC(F)(F)F)C3=O)nn2)ccc1-n1cnc(C)c1 , thanks.
-- reply 97.4006

-- ask Cell Viability lookup needed for Cc1c(N2CCCC2)nc2ccc(Br)cc2c1C(=O)NC[C@H](CCC(=O)O)c1ccccc1Cl , thanks.
-- reply 91.644

-- ask Cell Viability lookup needed for CC(C)[C@H](C(=O)Nc1ccc(C(=O)NO)cc1)c1ccccc1 , thanks.
-- reply 305.591

-- ask Cell Viability lookup needed for O=C(NNS(=O)(=O)c1ccccc1F)c1cc(F)cc(-c2ccccn2)c1 , thanks.
-- reply 103.912

Others:
-- ask Cell Viability lookup needed for CN(C)[C@@H]1CCN(c2cc(-c3ccccc3)nc3ccnn23)C1 [(R)-ZINC-3573] , thanks.
-- reply 113.962

-- ask Cell Viability lookup needed for CNC(=O)c1cc(C(=O)N[C@H]2[C@@H]3COC[C@@H]32)cc2c1O[C@@H](CF)[C@@H]2c1ccccc1 , thanks.
-- reply 119.987

###

# Cell Viability listing for each entry below
tested on: Colon cancer organoid; test: Optimized Dual-Glo assay to identify co-culture induced drug vulnerabilities using donated chemical probes and chemogenomics kinase set in O06 CRC organoid and F06 CAF mono and co-culture. […] Cell viability is reported both mono and co-culture models.; assay type: functional, Homo sapiens; parameters: dose or concentration left out as unconfirmed; conditions: Culture type Mono-Culture; Transduced with Renilla-dsRed lentivirus
# value in %; strip the unit string

Guide cases for Cell Viability, answers given:
-- ask Cell Viability lookup needed for CN1CCN(c2ccc(-c3cccc(CN4CCOCC4)c3)cc2NC(=O)c2c[nH]c(=O)cc2C(F)(F)F)CC1 , thanks.
-- reply 114.421

-- ask Cell Viability lookup needed for COc1cc(-c2cn([C@H]3CCc4ccccc4N(CC(F)(F)F)C3=O)nn2)ccc1-n1ccc(C)n1 , thanks.
-- reply 106.482

-- ask Cell Viability lookup needed for O=C(NC[C@H](O)CN1CCc2ccccc2C1)c1ccnc(NC2CCC2)c1 , thanks.
-- reply 84.1228

-- ask Cell Viability lookup needed for O=C(NNS(=O)(=O)c1ccccc1F)c1cc(F)cc(-c2ccccn2)c1 , thanks.
-- reply 91.757

-- ask Cell Viability lookup needed for Cn1cc(Cl)c2c(Oc3c(F)cc(Nc4cc(Cl)nc(N)n4)cc3F)ccnc21 , thanks.
-- reply 101.592

Others:
-- ask Cell Viability lookup needed for Cn1cc(-c2ccc3occ(-c4ccccc4-c4ccccc4)c3n2)cn1 , thanks.
-- reply 121.662

###

test system: Colon cancer organoid; assay: Optimized Dual-Glo assay to identify co-culture induced drug vulnerabilities using donated chemical probes and chemogenomics kinase set in O06 CRC organoid and F06 CAF mono and co-culture. […] Cell viability is reported both mono and co-culture models.; type: functional, Homo sapiens; set-up: dose or concentration left out as unconfirmed; conditions: Culture type Co-Culture; Transduced with Renilla-dsRed lentivirus
# Cell Viability listing for each entry below
# value in %; strip the unit string

Guide cases for Cell Viability, answers given:
-- ask Cell Viability lookup needed for CC1=C(C)C(=O)C(C(C)(C)CC(=O)N(CCCCSC[C@H]2O[C@@H](n3cnc4c(N)ncnc43)[C@H](O)[C@@H]2O)Cc2cccc(-c3ccc(Cl)cc3)c2)=C(C)C1=O , thanks.
-- reply 138.552

-- ask Cell Viability lookup needed for CCn1cc(-c2ccnc3[nH]c(-c4cccc(CN(C)C)c4)cc23)c(-c2ccc(NC(=O)N(C)C)cc2)n1 , thanks.
-- reply 116.692

-- ask Cell Viability lookup needed for CCNC(=O)c1cc2c(-c3cc(C(C)(C)O)ccc3Oc3c(C)cc(F)cc3C)cn(C)c(=O)c2[nH]1 , thanks.
-- reply 287.135

-- ask Cell Viability lookup needed for CC(C)N(CCCNC(=O)Nc1ccc(C(C)(C)C)cc1)C[C@H]1O[C@@H](n2cc(Br)c3c(N)ncnc32)[C@H](O)[C@@H]1O , thanks.
-- reply 97.8527

-- ask Cell Viability lookup needed for O=C(CNCc1cc2ccccc2[nH]1)N[C@H]1CC[C@@H](c2nc3ccccc3[nH]2)CC1 , thanks.
-- reply 91.436

-- ask Cell Viability lookup needed for CN(C)C(=O)/C(C#N)=C/c1ccc(-c2nc3cnc4c(ccn4C)c3n2C2CCCCC2)o1 , thanks.
-- reply 167.563

-- ask Cell Viability lookup needed for CCC(=O)N1CCN(c2ccc(-n3c(=O)ccc4cnc5ccc(-c6cnc7ccccc7c6)cc5c43)cc2C(F)(F)F)CC1 , thanks.
-- reply 40.1911

Query molecule follows.
-- ask Cell Viability lookup needed for Cc1noc(C)c1-c1cnc2c(-c3ccc(C(=O)O)cc3)cn([C@@H](C)c3ccccn3)c2c1 , thanks.
-- reply 312.702

###

# Cell Viability listing for each entry below
tested on: Colon cancer organoid; assay: Optimized Dual-Glo assay to identify co-culture induced drug vulnerabilities using donated chemical probes and chemogenomics kinase set in O06 CRC organoid and F06 CAF mono and co-culture. […] Cell viability is reported both mono and co-culture models.; assay type: functional, Homo sapiens; set-up: dose or concentration left out as unconfirmed; settings: Culture type Mono-Culture; Transduced with Renilla-dsRed lentivirus
# value in %; strip the unit string

-- ask Cell Viability lookup needed for COc1cc2c(cc1OCCCN1CCCC1)N=C(N)C21CCC1 , thanks.
-- reply 61.562

-- ask Cell Viability lookup needed for CC1(C)C(N)=Nc2cc(OCCCN3Cc4ccc(OCCc5cn(CC(=O)N6CCC(CCN7CCCC7)CC6)nn5)cc4C3)c(OCC3CC3)cc21 , thanks.
-- reply 146.021

Query compound follows.
-- ask Cell Viability lookup needed for O=C1NC(c2ccccn2)Sc2ccccc21 (configuration not stated) , thanks.
-- reply 96.0026

###

test system: Colon cancer organoid; assay: Optimized Dual-Glo assay to identify co-culture induced drug vulnerabilities using donated chemical probes and chemogenomics kinase set in O06 CRC organoid and F06 CAF mono and co-culture. […] Cell viability is reported both mono and co-culture models.; format: functional, Homo sapiens; set-up: dose or concentration left out as unconfirmed; details: Culture type Co-Culture; Transduced with Renilla-dsRed lentivirus
# Cell Viability listing for each entry below
# value in %; strip the unit string

Guide cases for Cell Viability, answers given:
-- ask Request body: readout Cell Viability, system Colon cancer organoid, query CN([C@@H]1CCc2c(CC(=O)O)c3cc(S(C)(=O)=O)ccc3n2C1)S(=O)(=O)c1ccc(F)cc1 [CRTH2-negative-control] . Return the value.
-- reply 114.368

-- ask Request body: readout Cell Viability, system Colon cancer organoid, query CCN(Cc1ccc(Cl)cc1)c1ncc(C(=O)NCCCN2CCCC2=O)c(NC2CCCC2)n1 . Return the value.
-- reply 112.754

-- ask Request body: readout Cell Viability, system Colon cancer organoid, query O=C(N[C@H]1CCCCC/C=C\C2C[C@@]2(C(=O)O)NC(=O)[C@@H]2C[C@@H](Oc3ccncc3)CN2C1=O)OC1CCCC1 (stereo not given in full) [BI 1675] . Return the value.
-- reply 153.84

-- ask Request body: readout Cell Viability, system Colon cancer organoid, query O=C(N1CCS(=O)(=O)CC1)N1C[C@H](c2ccc(OC(F)(F)F)cc2)C[C@H](c2nc(C3CC3)no2)C1 [BAY-386] . Return the value.
-- reply 144.172

-- ask Request body: readout Cell Viability, system Colon cancer organoid, query CC(=O)C1=C(C)N(c2cccc(C(F)(F)F)c2)C(=O)N[C@@H]1c1ccc(C#N)nc1 [BAY-678] . Return the value.
-- reply 162.784

Others:
-- ask Request body: readout Cell Viability, system Colon cancer organoid, query Cc1cc(C)cc([C@H]2c3cc(C)ccc3NC(=O)CN2C(=O)c2ccc(Br)s2)c1 . Return the value.
-- reply 115.465

-- ask Request body: readout Cell Viability, system Colon cancer organoid, query Clc1cccc(-c2nnnn2Cc2cccnc2)c1Cl . Return the value.
-- reply 176.132

###

system: Colon cancer organoid; assay: Optimized Dual-Glo assay to identify co-culture induced drug vulnerabilities using donated chemical probes and chemogenomics kinase set in O06 CRC organoid and F06 CAF mono and co-culture. […] Cell viability is reported both mono and co-culture models.; format: functional, Homo sapiens; parameters: dose or concentration left out as unconfirmed; conditions: Culture type Mono-Culture; Transduced with Renilla-dsRed lentivirus
measurement.name: Cell Viability
Entry format: amount then unit.

-- ask Request body: readout Cell Viability, system Colon cancer organoid, query CN(C)CCOc1ccc(-c2nc(-c3ccncc3)c(-c3ccc4c(c3)CC/C4=N\O)[nH]2)cc1 . Return the value.
-- reply 135.694%

-- ask Request body: readout Cell Viability, system Colon cancer organoid, query C[C@@H](c1cccc(CN)c1)n1cc(Cl)cc(C(N)=O)c1=N.Cl . Return the value.
-- reply 104.758%

-- ask Request body: readout Cell Viability, system Colon cancer organoid, query O=C(Nc1ccc(-c2ccnc(Nc3ccc(N4CCOCC4)cc3)n2)cc1)[C@@H]1CCCN1 . Return the value.
-- reply 108.082%

-- ask Request body: readout Cell Viability, system Colon cancer organoid, query O=C(O)c1ccc2c(c1)nc(Nc1cccc(Cl)c1)c1ccncc12 . Return the value.
-- reply 100.788%

-- ask Request body: readout Cell Viability, system Colon cancer organoid, query Cc1ccc2nc(NCCN)c3ncc(C)n3c2c1.O=C(O)C(F)(F)F.O=C(O)C(F)(F)F . Return the value.
-- reply 154.019%

Others:
-- ask Request body: readout Cell Viability, system Colon cancer organoid, query C[C@H]1CC(=O)Nc2cc(C(=O)NCCC3CC3)ccc2N1C(=O)N1CC2CC2C1 (some centres undefined) . Return the value.
-- reply 120.051%

-- ask Request body: readout Cell Viability, system Colon cancer organoid, query C[C@@H](c1cccc(C#N)c1)n1cc(Cl)cc(C(N)=O)c1=N.Cl . Return the value.
-- reply 98.9566%

-- ask Request body: readout Cell Viability, system Colon cancer organoid, query O=C(NOCC1CC1)c1ccc(F)c(F)c1Nc1ccc(I)cc1Cl . Return the value.
-- reply 67.7326%

-- ask Request body: readout Cell Viability, system Colon cancer organoid, query COc1cc(OC)cc(-c2noc(N3CCN(C)C4(CCN(c5ccccc5)CC4)C3)n2)c1 . Return the value.
-- reply 104.733%

-- ask Request body: readout Cell Viability, system Colon cancer organoid, query Cc1ccc(-c2ccc3c(ccc4sc5c(c43)NC[C@@H](C)NC5=O)n2)cn1 . Return the value.
-- reply 88.0896%

-- ask Request body: readout Cell Viability, system Colon cancer organoid, query CCC(F)(F)c1cc(N2CCC(S(C)(=O)=O)CC2)nc2sc(C(N)=O)c(N)c12 . Return the value.
-- reply 102.109%

-- ask Request body: readout Cell Viability, system Colon cancer organoid, query CCC(=O)N[C@@H]1CC[C@H](C(=O)N(C)c2ccc(-c3nc4ccccc4o3)cc2)C1 . Return the value.
-- reply 87.7071%

-- ask Request body: readout Cell Viability, system Colon cancer organoid, query Cl.Cl.c1ccc([C@@H]2C[C@H]2NC2CCNCC2)cc1 . Return the value.
-- reply 106.355%

-- ask Request body: readout Cell Viability, system Colon cancer organoid, query FC(F)c1nc2ccccc2n1-c1nc(N2CCOCC2)nc(N2CCOCC2)n1 . Return the value.
-- reply 93.8001%
